Entries and their pIC50
- Test system: Salmonella Typhi PhoP-promoter GFP reporter, low Mg2+, 4 h
- Measurement notes: PhoP promoter GFP reporter reduction in Typhi – purified and synthesized compounds, set 2, PhoP regulon inhibitor project, dose response (AID 2839)
pIC50: −log10 of the molar value.

Molecule	pIC50
CN1CCc2nc(SCC(=O)Nc3cccc(F)c3)c(C#N)c(-c3cccs3)c2C1	7.30
O=C1c2ccccc2C2=Nc3ccccc3SC(c3ccccc3F)C12 (stereo unspecified)	> 6.82
CCCCn1c(NS(=O)(=O)c2ccc(C)cc2)c(S(=O)(=O)c2ccccc2)c2nc3ccccc3nc21	> 6.82
N#C/C(=C\c1ccc[nH]1)C(=O)NC1CC1	4.22
COc1ccc(NC(=O)c2cc(Br)c(Br)s2)cn1	> 6.82
O=S(=O)(Nc1c(S(=O)(=O)c2ccccc2)c2nc3ccccc3nc2n1C1CCCCC1)c1ccccc1	> 6.82
CN1CCN(C2=Cc3cc(Cl)ccc3Sc3cc(F)ccc32)CC1	4.27
S=C(NCc1ccc(Cl)cc1)Nc1ccncc1	4.80
CCn1cc(C(=O)O)c(=O)c2cc(F)c(N3CCN(C(=S)NC(=O)c4ccccc4F)CC3)cc21	4.02
O=C(O)c1cn(-c2ccc(F)cc2)c2cc(Cl)c(F)cc2c1=O	> 6.82
CCn1cc(C(=O)O)c(=O)c2cc(F)c(N3CCN(C(=S)NC(=O)c4ccccc4Cl)CC3)cc21	4.69
O=C(Nc1ccc(Br)cc1)N1CCCN(Cc2ccccc2F)C1	4.21
COc1ccc(CNC(=S)Nc2ccncc2)cc1	4.32
CCn1cc(C(=O)O)c(=O)c2cc(F)c(N3CCN(C(=S)Nc4ccccc4C(F)(F)F)CC3)cc21	4.62
O=C1C2=C(Nc3ccccc3SC2c2ccco2)c2ccccc21 (stereo unspecified)	4.77
S=C(NCc1ccccc1Cl)Nc1ccncc1	3.88
COc1c(N2CCN(C(=S)NCc3ccccc3)C(C)C2)c(F)cc2c(=O)c(C(=O)O)cn(C3CC3)c12 (stereo unspecified)	4.10
Cc1ccc(CN2CCCN(C(=O)Nc3ccc(Cl)cc3)C2)cc1	4.34
O=C(Nc1nnc(-c2cccs2)o1)c1cccc(C(F)(F)F)c1	4.10
O=C(Nc1ccccc1)N1CCCN(Cc2ccc(F)cc2)C1	4.14
O=C1C2=C(Nc3ccccc3SC2c2ccc(I)cc2)c2ccccc21 (stereo unspecified)	5.44
O=C1C2=C(Nc3ccccc3SC2c2ccc(C(F)(F)F)cc2)c2ccccc21 (stereo unspecified)	> 5.63
CCOc1ccc(NC(=S)N2CCN(c3cc4c(cc3F)c(=O)c(C(=O)O)cn4CC)CC2)cc1	4.32
O=C1C2=C(Nc3ccccc3SC2c2ccsc2)c2ccccc21 (stereo unspecified)	4.46
COc1cccc(C2Sc3ccccc3NC3=C2C(=O)c2ccccc23)c1 (stereo unspecified)	4.48
COc1ccccc1NC(=O)N1CCCN(Cc2ccccc2F)C1	3.87

---

- Test system: Salmonella Typhi PhoP-promoter GFP reporter, low Mg2+, 4 h
- Measurement notes: PhoP promoter GFP reporter reduction in Typhi – purified and synthesized compounds, set 2, PhoP regulon inhibitor project, dose response (AID 2839)
pIC50: −log10 of the molar value.

Molecule	Tgt	pIC50
CCCCn1c(NS(=O)(=O)c2ccccc2)c(S(=O)(=O)c2ccc(C)cc2)c2nc3ccccc3nc21	Salmonella Typhi PhoP-promoter GFP reporter, low Mg2+, 4 h	> 6.82
O=C(Nc1ccc(Cl)cc1)N1CCCN(Cc2ccc(F)cc2)C1	Salmonella Typhi PhoP-promoter GFP reporter, low Mg2+, 4 h	4.21
O=[N+]([O-])c1ccc(CNC2CCCc3ccccc32)cc1 (stereo unspecified)	Salmonella Typhi PhoP-promoter GFP reporter, low Mg2+, 4 h	4.78
CCCCCNC(=O)c1cn(CC)c2cc(N3CCN(C)CC3)c(F)cc2c1=O	Salmonella Typhi PhoP-promoter GFP reporter, low Mg2+, 4 h	> 6.82
COc1ccccc1Nc1nc(NCc2ccco2)c2ccccc2n1	Salmonella Typhi PhoP-promoter GFP reporter, low Mg2+, 4 h	> 6.82
O=c1c2ccccc2[nH]c2ccc(F)cc12	Salmonella Typhi PhoP-promoter GFP reporter, low Mg2+, 4 h	> 6.82

// provenance: PubChem BioAssay AID2839
